Source listed as patent US20230037815A1.

Provide the reported Binding to Cells Expressing Human CD19 (FOB) of each item.
Target: T1, human CD19 on CHO cells (human, UniProt P15391 20-556)
T1 construct: whole, on cells; also called Cells Expressing Human CD19; CHO cells overexpressing the antigen
T1 sequence (looked up): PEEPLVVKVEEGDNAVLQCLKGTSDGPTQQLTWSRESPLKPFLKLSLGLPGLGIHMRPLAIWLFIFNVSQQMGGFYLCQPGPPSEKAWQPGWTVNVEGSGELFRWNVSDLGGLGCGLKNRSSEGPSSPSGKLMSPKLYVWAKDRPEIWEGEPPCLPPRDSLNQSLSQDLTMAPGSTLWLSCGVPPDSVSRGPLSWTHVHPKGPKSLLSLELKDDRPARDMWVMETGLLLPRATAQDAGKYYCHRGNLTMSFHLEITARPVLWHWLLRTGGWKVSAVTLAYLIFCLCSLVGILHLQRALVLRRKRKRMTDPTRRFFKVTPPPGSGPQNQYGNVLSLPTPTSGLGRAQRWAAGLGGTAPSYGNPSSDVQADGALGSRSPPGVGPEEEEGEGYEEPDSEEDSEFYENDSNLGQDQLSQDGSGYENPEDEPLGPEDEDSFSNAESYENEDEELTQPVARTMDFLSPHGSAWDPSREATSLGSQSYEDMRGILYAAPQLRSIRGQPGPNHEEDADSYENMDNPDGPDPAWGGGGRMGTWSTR
Test: flow cytometry, CHO cells, 100 nM IgG
Numbers only, in FOB.

Reference set (2 entries):
# binder, value_reported
measured = [
    ("CNG-CD19-1 (antibody, V domains shown, tested as IgG; also called parental antibody) VH: QVQLVQSGAEVKKPGASVKVSCKASGYTFTDYIMHWVRQAPGQGLEWMGYINPYNDGSKYTEKFQGRVTMTSDTSISTAYMELSRLRSDDTAVYYCARGTYYYGPQLFDYWGQGTTVTVSS VL: DIVMTQTPLSLSVTPGQPASISCKSSQSLETSTGTTYLNWYLQKPGQSPQLLIYRVSKRFSGVPDRFSGSGSGTDFTLKISRVEAEDVGVYYCLQLLEDPYTFGQGTKLEIK", 267),
    ("CNG-CD19-105 (antibody, V domains shown, tested as IgG produced in yeast) VH: QVQLVQSGAEVKKPGASVKVSCKASGYEFTDYIMHWVRQAPGQGLEWMGYINPYNDGSKYTEKFEGRVTMTSDTSISTAYMELSRLRSDDTAVYYCARGTYYYGPELFDYWGQGTTVTVSS VL: DIVMTQTPLSLSVTPGQPASISCKSSQRLETSTGTTYLNWYLQKPGQSPQLLIYRVSRRFSGVPDRFSGSGSGTDFTLKISRVEAEDVGVYYCLQLLEDPPTFGQGTKLEIK", 351),
]

Let's switch to this binder now.
Input CNG-CD19-703 (antibody, V domains shown, tested as IgG produced in yeast) VH: QVQLQESGPGLVKPSQTLSLTCTVSGGSISTSTMGVGWIRQHPGKGLEWIGFIWWDDDKRYNPNLKSRVTMSVDTSKNQFSLKLSSVTAADTAVYYCARMELWSYYFEYWGQGTLVTVSS VL: EIVLTQSPATLSLSPGERATLSCSASSSVSYMHWYQQKPGQAPRLLIYDTSKLASGIPARFSGSGSGTDFTLTISSLEPEDFAVYYCFQGSVYPFTFGQGTKLEIK . Output Binding to Cells Expressing Human CD19 (FOB): 135
